studyTarget: α4 integrin (Homo sapiens, UniProt P05556+P13612)
Sequence (P13612 34-1032): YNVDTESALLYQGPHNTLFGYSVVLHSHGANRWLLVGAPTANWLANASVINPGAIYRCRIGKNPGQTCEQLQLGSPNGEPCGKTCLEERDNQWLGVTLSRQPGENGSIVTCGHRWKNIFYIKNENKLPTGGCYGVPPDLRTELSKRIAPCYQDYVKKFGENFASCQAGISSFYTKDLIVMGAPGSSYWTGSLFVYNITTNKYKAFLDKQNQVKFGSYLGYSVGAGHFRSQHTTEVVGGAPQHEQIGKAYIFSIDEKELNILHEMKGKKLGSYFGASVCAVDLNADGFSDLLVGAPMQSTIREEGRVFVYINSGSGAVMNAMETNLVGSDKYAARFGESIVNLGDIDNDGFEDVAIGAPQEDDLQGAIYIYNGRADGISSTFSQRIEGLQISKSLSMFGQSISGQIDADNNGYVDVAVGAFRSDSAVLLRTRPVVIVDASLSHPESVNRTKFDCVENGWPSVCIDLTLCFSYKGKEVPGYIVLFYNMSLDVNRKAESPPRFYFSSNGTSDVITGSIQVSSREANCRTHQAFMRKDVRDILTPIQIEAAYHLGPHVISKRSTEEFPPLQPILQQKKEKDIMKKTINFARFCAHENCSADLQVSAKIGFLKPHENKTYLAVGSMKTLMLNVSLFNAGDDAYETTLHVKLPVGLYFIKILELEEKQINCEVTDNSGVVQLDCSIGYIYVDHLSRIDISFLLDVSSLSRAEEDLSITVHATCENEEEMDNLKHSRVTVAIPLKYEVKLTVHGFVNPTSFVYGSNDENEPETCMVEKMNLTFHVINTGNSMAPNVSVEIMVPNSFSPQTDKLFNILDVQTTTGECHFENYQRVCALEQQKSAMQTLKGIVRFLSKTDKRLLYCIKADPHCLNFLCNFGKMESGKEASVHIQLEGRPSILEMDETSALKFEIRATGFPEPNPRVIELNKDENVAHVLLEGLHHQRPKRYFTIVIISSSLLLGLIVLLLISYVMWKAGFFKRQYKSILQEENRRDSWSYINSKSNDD
Sequence (P05556 21-798): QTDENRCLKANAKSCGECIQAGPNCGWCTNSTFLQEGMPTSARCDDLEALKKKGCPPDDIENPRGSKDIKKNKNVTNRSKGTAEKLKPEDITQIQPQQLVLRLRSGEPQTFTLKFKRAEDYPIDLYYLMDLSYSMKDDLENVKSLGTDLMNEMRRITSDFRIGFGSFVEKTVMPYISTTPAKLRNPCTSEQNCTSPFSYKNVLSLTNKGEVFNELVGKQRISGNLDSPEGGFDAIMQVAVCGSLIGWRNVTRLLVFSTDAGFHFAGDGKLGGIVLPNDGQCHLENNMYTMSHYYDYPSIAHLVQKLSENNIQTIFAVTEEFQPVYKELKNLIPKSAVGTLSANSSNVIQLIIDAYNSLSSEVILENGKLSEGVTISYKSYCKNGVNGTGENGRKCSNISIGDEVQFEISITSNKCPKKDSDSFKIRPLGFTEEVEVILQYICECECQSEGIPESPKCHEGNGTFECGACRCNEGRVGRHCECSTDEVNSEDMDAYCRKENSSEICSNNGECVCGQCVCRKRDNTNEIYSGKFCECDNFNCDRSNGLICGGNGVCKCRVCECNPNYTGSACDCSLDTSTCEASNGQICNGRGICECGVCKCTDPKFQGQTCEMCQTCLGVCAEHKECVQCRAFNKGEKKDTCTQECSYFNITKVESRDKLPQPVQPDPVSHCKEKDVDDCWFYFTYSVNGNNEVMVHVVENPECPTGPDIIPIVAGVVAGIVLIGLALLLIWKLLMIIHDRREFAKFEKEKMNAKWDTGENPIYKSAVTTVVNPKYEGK
procedureDetails: Inhibition of cell adhesion to VCAM
Format: cell-based, human and guinea pig
condition: human and guinea pig integrin; read-out: IC50 for inhibition of cell adhesion to VCAM
pIC50: −log10 of the molar value.

smi	pIC50
CC(C)OC(=O)[C@H](Cc1ccc(OC(=O)N2CCN(C)CC2)cc1)NC(=O)[C@H]1N(S(=O)(=O)c2cccnc2)CSC1(C)C	9.00

----------
studyTarget: α4 integrin (Homo sapiens, UniProt P05556+P13612)
procedureDetails: Inhibition of cell adhesion to VCAM
Format: cell-based, human and guinea pig
condition: 100% serum; read-out: IC50 for inhibition of cell adhesion to high density VCAM-1 in the presence of 100% serum
reportedEndpoint: IC50

compound	testResult
CC(C)OC(=O)[C@H](Cc1ccc(OC(=O)N2CCN(C)CC2)cc1)NC(=O)[C@H]1N(S(=O)(=O)c2cccnc2)CSC1(C)C [Example 381]	1 to 10 nM
